experimental target: hGABABR1a/GABABR2 receptor (CHO membranes) (Homo sapiens, UniProt O75899+Q9UBS5)
Sequence (Q9UBS5 20-961): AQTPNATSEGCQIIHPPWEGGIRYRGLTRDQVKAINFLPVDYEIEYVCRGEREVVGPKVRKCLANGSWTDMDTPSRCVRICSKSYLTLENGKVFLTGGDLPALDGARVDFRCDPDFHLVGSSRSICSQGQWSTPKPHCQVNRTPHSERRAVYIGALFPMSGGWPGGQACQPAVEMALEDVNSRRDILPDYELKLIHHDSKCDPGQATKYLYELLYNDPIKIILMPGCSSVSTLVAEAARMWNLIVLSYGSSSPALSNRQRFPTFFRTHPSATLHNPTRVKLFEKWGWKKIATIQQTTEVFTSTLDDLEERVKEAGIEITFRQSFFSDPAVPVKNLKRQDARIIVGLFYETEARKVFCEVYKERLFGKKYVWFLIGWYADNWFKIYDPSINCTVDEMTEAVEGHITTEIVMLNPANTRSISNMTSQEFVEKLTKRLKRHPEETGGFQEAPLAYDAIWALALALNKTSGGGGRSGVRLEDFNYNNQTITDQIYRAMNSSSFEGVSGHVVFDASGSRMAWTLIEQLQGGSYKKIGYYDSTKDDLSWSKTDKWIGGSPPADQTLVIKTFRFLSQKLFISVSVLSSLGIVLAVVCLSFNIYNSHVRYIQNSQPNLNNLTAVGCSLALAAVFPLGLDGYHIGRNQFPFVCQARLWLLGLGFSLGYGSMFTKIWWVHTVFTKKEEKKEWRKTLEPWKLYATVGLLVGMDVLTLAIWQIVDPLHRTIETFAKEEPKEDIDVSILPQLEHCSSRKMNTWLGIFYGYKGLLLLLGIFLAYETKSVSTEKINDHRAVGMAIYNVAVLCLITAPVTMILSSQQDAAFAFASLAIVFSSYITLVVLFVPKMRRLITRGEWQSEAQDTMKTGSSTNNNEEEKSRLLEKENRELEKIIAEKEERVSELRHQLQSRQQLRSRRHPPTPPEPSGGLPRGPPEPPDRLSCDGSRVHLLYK
Sequence (O75899 42-941): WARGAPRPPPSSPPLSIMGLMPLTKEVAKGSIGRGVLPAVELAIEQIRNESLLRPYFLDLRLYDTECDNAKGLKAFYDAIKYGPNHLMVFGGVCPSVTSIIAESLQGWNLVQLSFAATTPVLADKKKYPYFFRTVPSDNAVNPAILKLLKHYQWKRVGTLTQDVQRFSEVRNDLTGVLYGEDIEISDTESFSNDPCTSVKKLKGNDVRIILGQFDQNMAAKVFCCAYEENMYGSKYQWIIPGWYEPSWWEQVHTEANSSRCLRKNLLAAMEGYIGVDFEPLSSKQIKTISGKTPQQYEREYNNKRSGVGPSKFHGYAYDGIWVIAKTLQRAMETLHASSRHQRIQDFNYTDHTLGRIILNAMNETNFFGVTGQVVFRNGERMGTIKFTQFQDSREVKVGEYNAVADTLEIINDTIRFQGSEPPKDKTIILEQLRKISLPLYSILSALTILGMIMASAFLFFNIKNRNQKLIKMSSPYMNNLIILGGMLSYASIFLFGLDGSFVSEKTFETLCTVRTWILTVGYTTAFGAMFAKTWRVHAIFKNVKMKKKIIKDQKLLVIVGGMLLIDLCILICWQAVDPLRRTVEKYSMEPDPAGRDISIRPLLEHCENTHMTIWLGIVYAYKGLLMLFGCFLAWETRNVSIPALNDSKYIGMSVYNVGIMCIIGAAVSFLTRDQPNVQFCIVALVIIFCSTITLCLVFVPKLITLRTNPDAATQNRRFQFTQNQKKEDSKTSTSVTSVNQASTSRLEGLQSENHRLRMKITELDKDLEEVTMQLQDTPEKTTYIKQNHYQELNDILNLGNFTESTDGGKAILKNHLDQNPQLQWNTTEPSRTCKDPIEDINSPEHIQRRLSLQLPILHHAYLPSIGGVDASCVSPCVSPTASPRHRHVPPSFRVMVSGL
test summary: GTPγ35S activation assay
test context: 10 μM
assay endpoint: SIGNAL TRANSDUCTION GTPγS binding % Effect at 10 μM (%)

>>> recorded_number("CC1(C)CC2=Nc3ccccc3SC2=C(NCCCC(=O)O)C1")
24.44
>>> recorded_number("CN(C)c1ncnc2c1N=C1CC(C)(C)CC(NCCCC(=O)O)=C1S2 [drawing 15]")
45.7275
>>> recorded_number("CC1(C)CC2=Nc3c(N)ncnc3SC2=C(NCCCC(=O)O)C1")
40.95
>>> recorded_number("CC1(C)CC2=Nc3c(Cl)ncnc3SC2=C(NCCCC(=O)O)C1")
61.93

====

experimental target: hGABABR1a/R2 heterodimeric GABAB receptor (CHO membranes) (Homo sapiens, UniProt O75899+Q9UBS5)
Sequence (Q9UBS5 20-961): as the sequence (Q9UBS5 20-961) above
Sequence (O75899 42-941): as the sequence (O75899 42-941) above
test summary: biochemical
assay endpoint: IC50 (nM)

>>> recorded_number("CN(C)c1ncnc2c1N=C1CC(C)(C)CC(NCCCC(=O)O)=C1S2 [drawing 15]")
64.9
>>> recorded_number("CC1(C)CC2=Nc3ccccc3SC2=C(NCCCC(=O)O)C1")
372
>>> recorded_number("CC1(C)CC2=Nc3c(N)ncnc3SC2=C(NCCCC(=O)O)C1")
151
>>> recorded_number("CC1(C)CC2=Nc3c(Cl)ncnc3SC2=C(NCCCC(=O)O)C1")
135
